Values from ChEMBL document CHEMBL4513216

# Assay: Toxicity liver stage against HepG2, at 10uM
# Assay type: cell-based
# Set-up: test concentration 10 uM, cell line HepG2-A16-CD81EGFP
# Test context: human, HepG2-A16-CD81EGFP cells; read-out: INHIBITION
Value type: cytotoxicity at 10 µM (%)
Your answer is read as %, so omit the unit and give the number.

> print(dat)
                                   compound  numeric.value
1   NC(=O)C1CCN(C(=O)Cn2ccc3cc(Br)ccc32)CC1           11.1
2  Cc1cnc(N2CC[C@@H]3CN(CCC(C)C)S(=O)(=O)[C@@H]3CC2)nc1           -3.1
3     CC(C)N1CCCn2nc(C(=O)NCCc3ccccn3)cc2C1          -1.95
4  Cc1ncc(CN(C)C(=O)Nc2cccc(CN3CCOC3=O)c2)s1          -2.27

Specify reported cytotoxicity at 10 µM for the compound shown: CCc1nc(CN2CCCC(NCc3nc(C)c(C)o3)C2)no1 (centres undefined)
-12.1

Provide measured cytotoxicity at 10 µM value, entry: Cc1ccc(C)n1-c1c(C(=O)NCC(C)N(C)C)cnn1C (centres undefined)
15.9

For the compound COc1cc(NC(=O)c2ccc(Cl)cc2F)c(C(=O)N(C)C)cc1OC , give its reported cytotoxicity at 10 µM.
-18.9

Given CCOC1COC2(CCN(c3ccccn3)CC2)C1 (centres undefined) , respond with its cytotoxicity at 10 µM.
3.77

Give recorded cytotoxicity at 10 µM. CN1CCN(Cc2cn3c(n2)CNCC3)CC1
7.85

###

# Assay: Toxicity liver stage against HepG2, at 10uM
# Assay type: cell-based
# Design: test concentration 10 uM, cell line HepG2-A16-CD81EGFP
# Test context: human, HepG2-A16-CD81EGFP cells; read-out: INHIBITION
Value type: cytotoxicity at 10 µM (%)
Expressed in %, but write only the number.

# example entries with known answers
> print(dat)
                                   compound             value.type  numeric.value
1  COc1c(CNC(C)c2sc(C)nc2C)c(C(C)C)nn1C (centres undefined)  cytotoxicity at 10 µM           7.97
2         OCc1csc(N2CCN(Cc3cccc(F)c3)CC2)n1  cytotoxicity at 10 µM           -4.9
3  CO[C@@H]1CO[C@@]2(CCCN(Cc3nc(C)cs3)C2)C1  cytotoxicity at 10 µM           -138
4  Cc1nc(C(Cc2ccsc2)NC(=O)CN2CCOCC2)sc1C (centres undefined)  cytotoxicity at 10 µM            2.7
5  CC(C)c1nc(CN(C)C(=O)CNS(=O)(=O)c2cccs2)no1  cytotoxicity at 10 µM          -16.8

Note cytotoxicity at 10 µM for the compound shown: COc1ccccc1Cc1cc(O)nc(NC(C)CN(C)C)n1 (centres undefined)
2.32

Given the compound COCCNC(=O)Nc1ccc(F)c(C(N)=O)c1 , write its reported cytotoxicity at 10 µM.
-6.46

###

# cytotoxicity at 10 µM per entry
# Assay: Toxicity liver stage against HepG2, at 10uM
# Assay type: cell-based
# Design: test concentration 10 uM, cell line HepG2-A16-CD81EGFP
# Test context: human, HepG2-A16-CD81EGFP cells; read-out: INHIBITION
Give the value, in units of %, as a plain number.

> print(dat)
                                   compound             value.type  numeric.value
1       CCN(C)Cc1cccc(CNC(=O)CSCc2ccncc2)c1  cytotoxicity at 10 µM           4.31
2     Cc1ccc2cc(CNCCCN3CCOCC3)c(=O)[nH]c2c1  cytotoxicity at 10 µM         -0.336
3  COCCN1CCC2(CCCN(Cc3ccoc3)C2)C1=O (configuration not stated)  cytotoxicity at 10 µM          0.582
4  CC(C)c1nc(/C=C/c2ccc(O)c(Cl)c2)ncc1C(=O)O  cytotoxicity at 10 µM           -1.7
5  CC(C)N1CCC2(C=C(C(=O)NC3CC3)c3ccccc32)CC1  cytotoxicity at 10 µM           1.29
6   CSc1cc2c(cc1NC(=O)NCC(C)(C)C(N)=O)OCCO2  cytotoxicity at 10 µM          -10.9

Specify reported cytotoxicity at 10 µM for the compound shown: O=S(=O)(CCNCc1cc(O)c2cc(F)ccc2n1)N1CCCC1
-39.5

For the compound O=C(NCCCn1ccnc1)NCC(c1ccco1)N1CCCC1 (configuration not stated) , give its reported cytotoxicity at 10 µM.
-8.86

Specify reported cytotoxicity at 10 µM for the compound shown: CCCN1CCC(c2nc3ccc(-c4ccccc4)cn3n2)CC1
-129

Supply reported cytotoxicity at 10 µM belonging to this compound: Cc1occc1C(=O)NCc1cccnc1N(C)C
-5.89

// fetch cytotoxicity at 10 µM given entry CNS(=O)(=O)c1ccc(CNC(=O)Nc2ccccn2)s1
-9.11

Specify cytotoxicity at 10 µM for Cc1cnc(C(=O)N2CCCC(c3nccn3Cc3cscn3)C2)cn1 (configuration not stated) and stop.
-7.92

###

# Assay: Toxicity liver stage against HepG2, at 10uM
# Format: cell-based
# Set-up: test concentration 10 uM, cell line HepG2-A16-CD81EGFP
# Test context: human, HepG2-A16-CD81EGFP cells; read-out: INHIBITION
Value type: cytotoxicity at 10 µM (%)
The answer is to be given in %; state only the numeric part.

Worked set:
> print(dat)
                                   compound  numeric.value
1  Cc1cc2nc(C(C)C)cc(NCC(c3ccccn3)N(C)C)n2n1 (centres undefined)          -1.63
2  CCCN(Cc1nnnn1C1CC1)CC1COc2ccccc2O1 (centres undefined)           2.04
3  FC(F)(F)C1CN(Cc2cnc3c(-c4ccccc4)cnn3c2)CCO1 (centres undefined)          -2.34

Complete the entry with cytotoxicity at 10 µM for CNc1nc2c(s1)C(c1cc(Cl)ccc1F)CC(=O)N2 (centres undefined)
10.3

Retrieve cytotoxicity at 10 µM measured for CN(CCN1CCOCC1)C(=O)CCc1cccc(Cl)c1 and print it.
-6.57

Give the reported value of cytotoxicity at 10 µM for this record: c1cnn(CC2CCCCN2Cc2nc(-c3ccoc3)no2)c1 (centres undefined)
-5.22

Specify reported cytotoxicity at 10 µM for the compound shown: CN(C)c1ncc2c(n1)C1(CCN(Cc3ccccc3F)C1)COC2 (centres undefined)
10.6

Fill in cytotoxicity at 10 µM for record CC(C(=O)NCc1ccnc(OCC(F)(F)F)c1)n1cncn1 (centres undefined)
1.13

Please give the documented cytotoxicity at 10 µM of CN(C)CC1CSCCCN1C(=O)c1ccc(=O)[nH]c1 (centres undefined)
2.76

In one line, give reported cytotoxicity at 10 µM of the entry CCC1CN(CC(=O)NCC(C)C)CCO1 (centres undefined) .
14.4

Tell me its cytotoxicity at 10 µM given NC(=O)C1Cn2ccnc2C2(CCN(C(=O)c3ccncc3)CC2)O1 (centres undefined) as the entry.
-103

State its cytotoxicity at 10 µM for this compound: NC(=O)CN1CCCC(C(=O)N2CCC(O)(Cc3ccccc3)CC2)C1 (centres undefined)
-7.36

Specify cytotoxicity at 10 µM for COc1ccnc(CNc2nc(C)nc3ccsc23)c1 and stop.
40.5

Write down cytotoxicity at 10 µM measured for item Cc1nsc(C(=O)NCCc2ccccc2)n1
4.28

Give cytotoxicity at 10 µM for CC(C)c1nn(C)c(N2CCOCC2)c1CNCC(=O)N(C)C
-4.3

Look up cytotoxicity at 10 µM of CS(=O)(=O)N(Cc1ccon1)c1cccc(Br)c1 and report it.
7.57

Note down cytotoxicity at 10 µM recorded for Cc1ccc(C2(C(=O)N3CCC(n4cc(C(C)O)nn4)CC3)CC2)cc1 (centres undefined)
-2.26

###

# Assay: Toxicity liver stage against HepG2, at 10uM
# Format: cell-based
# Set-up: test concentration 10 uM, cell line HepG2-A16-CD81EGFP
# Test context: human, HepG2-A16-CD81EGFP cells; read-out: INHIBITION
Listed here: items and their measured cytotoxicity at 10 µM.
The reply should be a number in %, with the unit left off.

Worked examples, 5 molecules total:
> print(dat)
                                   molecule  quantity.unit  numeric.value
1  CCC(C(=O)Nc1ccc2cn(CC)nc2c1)N1CCCC1=O (configuration not stated)              %          -46.7
2  c1coc(-c2nnc(CN3CCOC(Cn4cccn4)C3)o2)c1 (configuration not stated)              %            -11
3  CCCC(C)CS(=O)(=O)NCCc1csc(N2CCCC2)n1 (configuration not stated)              %           7.47
4   Cc1nnc([C@]23COC[C@H]2CN(Cc2nccs2)C3)o1              %          0.872
5            Clc1cncc(N2CCN(Cc3ccon3)CC2)n1              %           6.94

Using known records, supply cytotoxicity at 10 µM for COCCN1CCOCC12CCN(Cc1ccn(C)n1)CC2
-3.39

Tell me cytotoxicity at 10 µM reported for Cc1cc(C)n(CCNC(=O)c2ncc[nH]2)c(=O)n1
2.84

Fill in cytotoxicity at 10 µM for record O=C(c1ccccc1F)N1CCC2(CC1)CC(N1CCCC1)CO2 (configuration not stated)
-120

Fill in reported cytotoxicity at 10 µM for this entry: CCCNc1ncc(CN2CCC3(CCNC(=O)CC3)CC2)cn1
-166
